test_protocol: yeast display, Sf9 membrane polyspecificity reagent, FACS + sequencing; frameworks hold sequencing errors
experimental_endpoint: polyreactivity (PSR sort gate)

Guide cases for polyreactivity (PSR sort gate), answers given:
item_sequence	observed_measurement
QVQLVESGGGLVQAGGSLRLSCPASGRIFYIYTMGWYRQAPGKERELVASITYNGGSTYYADSVKGRFTISRDNAKNTVYLQMNSLKPEDTAVYYCNANSRSPTYRYRSWPYNYWGQGTQVTVSS	high polyreactivity
QVQLVESGGGLVQAEGSLRLSCAASGNTFERNTMGWYRQATGKERELVAAISWSGGRTYYADSVKGRFTISRDNAKNTVYLQLNSLKPEDTAVYYCAATNYYYGAGYYYWGQGTQVTVSS	high polyreactivity
QVQLQESGGGQVQAGGSLRLSCAASGTIFLYAFMGWYRQAPGKERELVAAIDVGTTTNYADSVKGRFTISRDNAKNTGYLQMNSLKPEDTAVYYCAANLGYLEDLGYWGQGTQVTVSS	low polyreactivity
QVQLVESGGGLVQAGGSLRLTCAASGFIFGANTRGWYRQAPGKERELVATISWSGGSTYYADSVKGRFTISRDNAKMTVYLQMNSLKPEVTAVYYCAAPGVTYGFRSVYWGQGTQVTVSS	low polyreactivity

Here is another sequence to look at.
Reported polyreactivity (PSR sort gate) of QVQLVESGGGLVQAGGSLRLSCAASGRIFAYYAMGWYRPAPGIERELVATIRGGGSTNYADSVKGRFTISRDNAKNTVYLQMNSLKPEATAVYYCAKPGAKWRGFDYWGLGTQVTVSS : low polyreactivity
